- Protocol text: melting temperature; fluorescence melt of hairpins on a sequencing array, two-state fit, raised by 9.35 °C to match UV melts
- Conditions used: sodium 0.088 M
Assign class by Tm: not lower than 60 °C means criterion met; lower than 60 °C means criterion not met.

Please indicate if the recorded Tm for GCATGCGAAAGCAATGC ((((((....))).))) meets or exceeds 60 °C.
criterion met

Please indicate if the recorded Tm for GCCAGGGGAAACTCTGGC (((((.(....).))))) meets or exceeds 60 °C.
criterion not met

Please indicate if the recorded Tm for GTCGTGGAAACACGAC ((((((....)))))) meets or exceeds 60 °C.
criterion met

Please indicate if the recorded Tm for GGATCAGGAAACTGATCC (((((((....))))))) meets or exceeds 60 °C.
criterion met

Please indicate if the recorded Tm for GTGTACGAAAGTATACAC ((((((....)))..))) meets or exceeds 60 °C.
criterion not met

---

- Protocol text: folding enthalpy; higher = less favourable; fluorescence melt of hairpins on a sequencing array, two-state fit
- Conditions used: sodium 0.088 M
Parameter: folding enthalpy (kcal/mol)
The figure you give is taken to be in kcal/mol; do not add the unit.

Fill in: folding enthalpy of GAAGACGAAAGTCAGTTC ((((((....)))..))) is ___
-15

Fill in: folding enthalpy of GCGTTAAAACGC ((((....)))) is ___
-21.4

Fill in: folding enthalpy of GTTTAACCGAAAGGTAAC (((..(((....)))))) is ___
-10.4

Fill in: folding enthalpy of GCTTGCTCGAAAGAGAGC (((..(((....)))))) is ___
-21.3

Fill in: folding enthalpy of GATCCAATAATGGATC ((((((....)))))) is ___
-31.1

Fill in: folding enthalpy of GCATACGAAAGTAAATGC ((((((....)))..))) is ___
-30

---

- Protocol text: folding enthalpy; higher = less favourable; fluorescence melt of hairpins on a sequencing array, two-state fit
- Conditions used: sodium 0.088 M
Assign class by folding enthalpy: not lower than -30 kcal/mol means satisfied; lower than -30 kcal/mol means not satisfied.

Please indicate if the recorded folding enthalpy for GCCGTCGAAAGACCGGC ((((((....))).))) meets or exceeds -30 kcal/mol.
not satisfied

Please indicate if the recorded folding enthalpy for GTCGGTCGAAAGACAGAC (((.(((....))).))) meets or exceeds -30 kcal/mol.
not satisfied

Please indicate if the recorded folding enthalpy for GTACGGGGAAACTCGTAC (((((.(....).))))) meets or exceeds -30 kcal/mol.
not satisfied

Please indicate if the recorded folding enthalpy for GCCCACCCGAAAGGGGGC (((..(((....)))))) meets or exceeds -30 kcal/mol.
satisfied

Please indicate if the recorded folding enthalpy for GATCAATCTTTTGATC ((((((....)))))) meets or exceeds -30 kcal/mol.
not satisfied

Please indicate if the recorded folding enthalpy for GCCAACGAAAGTTCGGC ((((((....))).))) meets or exceeds -30 kcal/mol.
satisfied

Please indicate if the recorded folding enthalpy for GCAGTTGGAAACGACTGC (((((.(....).))))) meets or exceeds -30 kcal/mol.
not satisfied

Please indicate if the recorded folding enthalpy for GTGGTCGAAAGACCCAC ((((((....))).))) meets or exceeds -30 kcal/mol.
satisfied

Please indicate if the recorded folding enthalpy for GCTTTGCGAAAGCTTAGC (((..((....))..))) meets or exceeds -30 kcal/mol.
satisfied

Please indicate if the recorded folding enthalpy for GCCGTCGAAAGACTGGGC ((((((....)))..))) meets or exceeds -30 kcal/mol.
satisfied

Please indicate if the recorded folding enthalpy for GATCATCACTATGATC ((((((....)))))) meets or exceeds -30 kcal/mol.
not satisfied

Please indicate if the recorded folding enthalpy for GTTCAGCGAAAGCTAAC (((.(((....)))))) meets or exceeds -30 kcal/mol.
satisfied

Data provenance is the array DNA melting data of Ke et al. (doi:10.1101/2024.01.08.574731).
